tested on: Pharbitis purpurea; assay: Post-emergence herbicidal action against PHBPU; assay type: in vivo; settings: 20 g a.i./ha
Task for the reader: assign each of the following compounds its reported Herbicidal action against [%] PHBPU.
Give bare numbers, in %.

// for each compound below, give its Herbicidal action against [%] PHBPU
1. COC1(C(=O)NC2C=CC(C(=O)OCCSC(C)C)C2)CC(c2cc(F)cc(F)c2)=NO1 (centres unmarked) [Example I-25]
2. CSCCOC(=O)C1C=CC(NC(=O)C2(CO)CC(c3cc(F)cc(F)c3)=NO2)C1 (centres unmarked) [Example I-70]
3. C=CC1(C(=O)NC2CC=C(C(=O)OCCSC)C2)CC(c2cc(F)cc(F)c2)=NO1 (centres unmarked) [Example I-50]

[80, 80, 90]

// for each compound below, give its Herbicidal action against [%] PHBPU
1. CSCCOC(=O)C1C=CC(NC(=O)C2(C)CC(c3cccc(F)c3)=NO2)C1 (centres unmarked) [Example I-34]
2. COC(=O)CSCCOC(=O)C1C=CC(NC(=O)C2(C)CC(c3cc(F)cc(F)c3)=NO2)C1 (centres unmarked) [Example I-64]

1. 90
2. 80

----------
Task for the reader: assign each of the following compounds its reported Herbicidal action against [%] LOLRI.
test system: Lolium rigidum; test: Post-emergence herbicidal action against LOLRI; assay type: in vivo; settings: 20 g a.i./ha, visual rating about 3 weeks after treatment
Give bare numbers, in %.

Please review the entries below; each comes with its answer.
{"columns": ["compound", "testedTarget", "quantityUnit", "Herbicidal action against [%] LOLRI"],
 "data": [
  ["CSCCOC(=O)C1C=CC(NC(=O)C2(C3CC3)CC(c3cc(F)cc(F)c3)=NO2)C1 (stereo not shown) [Example I-28]", "Lolium rigidum", "%", 90],
  ["CSCCOC(=O)C1C=CC(NC(=O)C2(C3CC3)CC(c3cc(F)cc(F)c3)=NO2)C1 (stereo not shown) [Example I-30]", "Lolium rigidum", "%", 90],
  ["CC(C)SCCOC(=O)C1C=CC(NC(=O)C2(C)CC(c3cc(F)cc(F)c3)=NO2)C1 (stereo not shown)", "Lolium rigidum", "%", 100]
]}

// for each compound below, give its Herbicidal action against [%] LOLRI
1. CC(C)CSCCOC(=O)C1C=CC(NC(=O)C2(C)CC(c3cc(F)cc(F)c3)=NO2)C1 (stereo not shown)
2. CSCCOC(=O)C1C=CC(NC(=O)C2(C(F)(F)F)CC(c3cccc(C#N)c3)=NO2)C1 (mixture of isomers)

1: 90; 2: 90

// for each compound below, give its Herbicidal action against [%] LOLRI
1. C=CC1(C(=O)NC2C=CC(C(=O)OCCSC)C2)CC(c2ccccc2)=NO1 (mixture of isomers)
2. C=CC1(C(=O)NC2C=CC(C(=O)OCCSC)C2)CC(c2cc(F)cc(F)c2)=NO1 (stereo not shown)

1. 80
2. 90

----------
Task for the reader: assign each of the following molecules its reported Herbicidal action against [%] POLCO.
test system: Polygonum convolvulus; test: Post-emergence herbicidal action against POLCO; type: in vivo; details: 20 g a.i./ha
Answers are plain numbers, in %.

// for each molecule below, give its Herbicidal action against [%] POLCO
1. CSCCOC(=O)C1C=CC(NC(=O)C2(C)CC(c3cc(C#N)cc(C#N)c3)=NO2)C1 (centres unmarked) [Example I-52]
2. CSCCOC(=O)C1C=CC(NC(=O)C2(C(F)(F)F)CC(c3cc(F)cc(C#N)c3)=NO2)C1 (mixture of isomers) [Example I-38]
3. CSCCOC(=O)C1C=CC(NC(=O)C2(C)CC(c3cc(F)cc(F)c3)=NO2)C1 (centres unmarked)
4. C=CCSCCOC(=O)C1C=CC(NC(=O)C2(C)CC(c3cc(F)cc(F)c3)=NO2)C1 (centres unmarked)

1. 80
2. 90
3. 90
4. 90
